Entry source: paper PMC8569681

target: equine BChE (eqBChE) (Equus caballus); construct: purchased Sigma-Aldrich (Milan, Italy); assay: Percent inhibition of eqBChE, Ellman's spectrophotometric method; type: biochemical; details: read-out: % inhibition vs eqBChE ± SD (9 uM), 9 uM; supplement csv
Sequence (P81908 whole entry): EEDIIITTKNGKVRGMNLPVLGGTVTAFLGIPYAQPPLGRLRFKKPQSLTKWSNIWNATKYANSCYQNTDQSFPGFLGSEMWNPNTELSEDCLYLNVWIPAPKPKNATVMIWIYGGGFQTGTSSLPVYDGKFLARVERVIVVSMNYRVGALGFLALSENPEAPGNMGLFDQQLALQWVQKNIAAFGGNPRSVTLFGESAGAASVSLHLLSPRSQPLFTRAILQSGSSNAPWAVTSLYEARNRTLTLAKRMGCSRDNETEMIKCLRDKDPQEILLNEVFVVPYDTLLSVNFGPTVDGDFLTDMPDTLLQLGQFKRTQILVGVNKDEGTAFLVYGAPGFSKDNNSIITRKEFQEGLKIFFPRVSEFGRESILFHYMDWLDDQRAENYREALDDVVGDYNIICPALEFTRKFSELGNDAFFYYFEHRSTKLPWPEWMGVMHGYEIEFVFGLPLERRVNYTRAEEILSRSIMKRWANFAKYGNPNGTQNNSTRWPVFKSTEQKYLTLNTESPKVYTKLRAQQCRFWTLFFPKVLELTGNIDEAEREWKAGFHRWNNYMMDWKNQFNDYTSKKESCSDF
EXPERIMENTAL READOUT: inhibition at 9 µM (%)

>>> print(df.to_string())
                                   mol  unit_tag  value_observed
0           c1ccc(CNCCCCCNc2ccccn2)cc1         %               5
1          c1ccc(CNCCCCCCNc2ccccn2)cc1         %            16.6
2        Clc1ccc(CNCCCCCCNc2ccccn2)cc1         %            17.7
3    Clc1cc(CNCCCCCCNc2ncccn2)cc(Cl)n1         %            26.8
4  COc1cc(CNCCCCCCNc2ncccn2)cc(OC)c1OC         %            29.4
